Biological target: T1, IL-18 receptor (IL-18Rαβ) on cells (UniProt Q13478 19-541; O95256 20-599, limits assumed)
T1 sequence (looked up) 1: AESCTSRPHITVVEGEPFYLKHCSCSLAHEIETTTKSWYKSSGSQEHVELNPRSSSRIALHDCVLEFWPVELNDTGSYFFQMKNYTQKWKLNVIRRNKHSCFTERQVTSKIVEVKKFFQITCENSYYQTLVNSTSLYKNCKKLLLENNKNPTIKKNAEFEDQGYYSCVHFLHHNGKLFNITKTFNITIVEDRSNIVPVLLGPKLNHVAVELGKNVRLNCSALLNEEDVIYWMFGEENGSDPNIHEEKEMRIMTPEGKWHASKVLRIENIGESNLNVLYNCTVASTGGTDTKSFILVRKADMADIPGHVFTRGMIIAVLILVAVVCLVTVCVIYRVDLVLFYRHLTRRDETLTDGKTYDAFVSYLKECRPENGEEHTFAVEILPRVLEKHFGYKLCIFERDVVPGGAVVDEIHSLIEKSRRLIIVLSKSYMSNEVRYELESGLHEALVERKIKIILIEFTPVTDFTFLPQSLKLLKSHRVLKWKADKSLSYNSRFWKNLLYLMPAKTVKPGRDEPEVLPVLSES
T1 sequence (looked up) 2: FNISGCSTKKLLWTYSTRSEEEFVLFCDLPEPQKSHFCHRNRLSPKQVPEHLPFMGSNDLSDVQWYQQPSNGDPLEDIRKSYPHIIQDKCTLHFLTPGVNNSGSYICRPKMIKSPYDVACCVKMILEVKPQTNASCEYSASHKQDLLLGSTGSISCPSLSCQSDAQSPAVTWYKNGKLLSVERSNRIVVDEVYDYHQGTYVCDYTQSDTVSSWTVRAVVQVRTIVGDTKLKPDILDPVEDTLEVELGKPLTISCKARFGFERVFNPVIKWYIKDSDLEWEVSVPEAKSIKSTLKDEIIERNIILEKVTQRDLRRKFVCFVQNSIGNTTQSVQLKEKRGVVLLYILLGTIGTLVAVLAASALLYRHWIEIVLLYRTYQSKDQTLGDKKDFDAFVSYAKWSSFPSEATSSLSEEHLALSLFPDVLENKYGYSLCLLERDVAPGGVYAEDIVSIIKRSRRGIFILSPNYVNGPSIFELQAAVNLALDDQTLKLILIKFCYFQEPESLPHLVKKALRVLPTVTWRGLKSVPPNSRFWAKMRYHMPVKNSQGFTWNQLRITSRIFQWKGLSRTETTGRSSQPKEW
Experiment: cell-based or functional assay
Some binders, each annotated with its measured IFNγ release NK-92 assay EC50.
METRIC_NAME: IFNγ release NK-92 assay EC50 (nM)

BINDER	UNITS_OF_MEASURE	TEST_RESULT
C320 (ligand) MAAEPVEDNSINFVAMKFIDNTLYFIAEDDENLESDSGRPLGYFGKLKSKLSIIRNLNDQVLFIDQGNRPLFEDMTDSDARDNAPRTIFIISMYADSQPRGMAVAISVKCEKISTLSAENKIISFKEMNPPDNIKDTKSDIIFFQRSVPGHDNKMQFESSSYEGYFLAAEKERDLFKLILKKEDELGDRSIMFTVQNED	nM	158
C323 (ligand) MAAEPVEDNSINFVAMKFIDNTLYFIAEDDENLESDRGRRVANLVGGSGYFGKLKSKLSIIRNLNDQVLFIDQGNRPLFEDMTDSDARDNAPRTIFIISMYADSQPRGMAVAISVKCEKISTLSAENKIISFKEMNPPDNIKDTKSDIIFFQRSVPGHDNKMQFESSSYEGYFLAAEKERDLFKLILKKEDELGDRSIMFTVQNED	nM	102
C316 + Matriptase (ligand) MAAEPVEDNSINFVAMKFIDNTLYFIAEDDENLESDSGRVANLVGYFGKLKSKLSIIRNLNDQVLFIDQGNRPLFEDMTDSDARDNAPRTIFIISMYADSQPRGMAVAISVKCEKISTLSAENKIISFKEMNPPDNIKDTKSDIIFFQRSVPGHDNKMQFESSSYEGYFLAAEKERDLFKLILKKEDELGDRSIMFTVQNED	nM	366
